sequences and their reported PBM binding z-score
- Tested on: LXRa homodimer (NR concentration 270 nM)
- assayText: PBM binding z-score (relative to random genomic background probes); higher = stronger binding; sequences stand for … in GC…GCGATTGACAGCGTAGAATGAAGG

{"recordSequence": "ACTTACGGGTCAACTAGGTTATAGCACGCGTATA", "PBM binding z-score": 0.702}
{"recordSequence": "TCTTGTAGATCAAGAGGAGGTTAAGAAAGATCGA", "PBM binding z-score": -0.0702}
{"recordSequence": "ACAGACAGGTGAGTGAAGGGAACTCAGCTGGACG", "PBM binding z-score": -0.538}
{"recordSequence": "CCTTACGGGTTACGAGGTTATAGCACGACGAGCG", "PBM binding z-score": 0.0451}
{"recordSequence": "CCGAGTAGGTGATGGGGCATTCAGGCAACGGTGA", "PBM binding z-score": -0.529}
{"recordSequence": "CCTACTGGGCCAAAGATCATTGATTCCAATGCTC", "PBM binding z-score": -0.374}
{"recordSequence": "TCTTGGAGATCAAAGGTTAAGAAAGCCGAAGCCT", "PBM binding z-score": -0.196}
{"recordSequence": "GCTGCTAGGACAACTGATGGTCAGCTAAAGCTCG", "PBM binding z-score": -0.672}
{"recordSequence": "AGAATGAGGGTATTAAGATCAGGGAATTGCGGTC", "PBM binding z-score": -0.107}
{"recordSequence": "ATATGTAGGTTAACGGGTCATTCAGTTTGCGCAT", "PBM binding z-score": 1.03}
{"recordSequence": "CAAACTGGGTCAAAGGTCAAAGTCGAGCCAACCA", "PBM binding z-score": 4.88}
{"recordSequence": "ATAGGTAGGTTAAGGGTCATTCAGGTTGGTTCGC", "PBM binding z-score": 3.31}
{"recordSequence": "AATAGCAGGCCAAGGGTCACTCAAGATTAGTCCG", "PBM binding z-score": 0.455}
{"recordSequence": "CGTACAAGGTCAGCAGGTCAGTGAAAGCGACGTG", "PBM binding z-score": 0.745}
{"recordSequence": "TAGCCTAGGTCATGCGGGCGAGTATAGTGTCGGC", "PBM binding z-score": 0.369}
{"recordSequence": "GCAGACAGGTGAATCGCAGGTAACTCAGGGTGGC", "PBM binding z-score": -0.726}
{"recordSequence": "CGAACTAGGTCTTTGACAGGACAGTGAATAGTAA", "PBM binding z-score": -0.136}
{"recordSequence": "TCTTGTAGATCAAAGGTTTAGAAAGCCGAAGCCT", "PBM binding z-score": -0.116}
{"recordSequence": "TCTTGTAGATCAGCAGGTTAACAAAGCTGGCCAA", "PBM binding z-score": -0.313}
{"recordSequence": "GCGACTGGGGCAAAGCAGGTTGCCATAAGGTTGG", "PBM binding z-score": -0.715}
{"recordSequence": "CCGACTGGGGCAATGTTACCATAACGCACAGCCA", "PBM binding z-score": -0.195}
{"recordSequence": "TGTACAGGGTCAAAGGCCAGAGTACGAATGTCGA", "PBM binding z-score": -0.0298}
{"recordSequence": "GCTGCTAGGTCAACTGATGGTAAGCTAAAGCTCG", "PBM binding z-score": -0.233}
{"recordSequence": "ATTTCTAGGTAAAGATAGTTCAGTGAATGCAAAT", "PBM binding z-score": 0.857}
{"recordSequence": "CCTTACCGGTCACGAGGTTATAGCACGACGAGCG", "PBM binding z-score": 2}
{"recordSequence": "GATACAGGGTCAAGCCCAGAGTACGCGTATTGAT", "PBM binding z-score": -0.0405}
{"recordSequence": "CCTACTGGGCCATTCAGAGTTCATTGATCATATG", "PBM binding z-score": 6.11}
{"recordSequence": "CCTACTGGGCCATTCACAGGTCATTGATCATATG", "PBM binding z-score": 4.05}
{"recordSequence": "TCATATAGGTAATACAGATGAAAGTCGGCATCTA", "PBM binding z-score": 0.032}
{"recordSequence": "TCTCGTAGATCAAAGGTTAAGAAAGCCGAAGCCT", "PBM binding z-score": -0.119}
{"recordSequence": "ACAGACAGGTGATGAAGGTAAATCAGGCTATCAT", "PBM binding z-score": -0.0858}
{"recordSequence": "CCTCGGAGGACAACTGGAGGTCAGAGCTGCCAGA", "PBM binding z-score": 5.05}
{"recordSequence": "ACAATTAGTTGAGACGAGGGCAACCGATAGGTTG", "PBM binding z-score": 0.178}
{"recordSequence": "ATACCAAGGTGATCGTGAGGTCGCTGATACTAAC", "PBM binding z-score": 0.154}
{"recordSequence": "CGTGCAAGGTCAAGGTCAGTGAAAGAGACTCGAA", "PBM binding z-score": 1.12}
{"recordSequence": "ACAGACAGGTGATAAAGGTAACTCAGGCTATCAT", "PBM binding z-score": -0.44}
{"recordSequence": "ACAGACAGGTGATGAAGATAACTCAGGCTATCAT", "PBM binding z-score": -0.283}
{"recordSequence": "AGAACGAGGGCAATGAGTCGATAGCACGGGTGGC", "PBM binding z-score": -0.625}
{"recordSequence": "ACAGACAGGTGATGAAGGTAATTCAGGCTATCAT", "PBM binding z-score": -0.115}
{"recordSequence": "CCCGCTAGGTCAATGGTCAGCTAAAGCAGCTCGC", "PBM binding z-score": -0.0501}
{"recordSequence": "TAAATGAGGTTATAAGATCAGGGAACGTTGCAAA", "PBM binding z-score": 0.212}
{"recordSequence": "ATATGTAGGTTAGCTGGGATCATTCAGACTAGGC", "PBM binding z-score": 0.0491}
{"recordSequence": "CAAACTAGGTCAAGAGGACAAAGTCCGCTTCCCG", "PBM binding z-score": 1.1}
{"recordSequence": "CCTACTGGGCCAAAGGTCATTAATTCCAATGCTC", "PBM binding z-score": 3.47}
{"recordSequence": "GCTGCAAGGTCAGGTTGGTCAGCTAACGGGTACG", "PBM binding z-score": 0.0795}
{"recordSequence": "GCTTCTAGGTCAGGTTGGTCAGCTAACGGGTACG", "PBM binding z-score": -0.092}
{"recordSequence": "CGTCCAAGGTCAATGCTTGGTCAGTGAAAGCATT", "PBM binding z-score": 0.472}
{"recordSequence": "CGATCTAGGTCATTGACAGGACAGTGAATAGTAA", "PBM binding z-score": 0.511}
{"recordSequence": "ACTTACGGGTCAACGAGGTTATAGCCCGCGTATA", "PBM binding z-score": 0.779}
{"recordSequence": "GCTCGGAGGACAAGATCAGAGCTTTGTCCGTAGA", "PBM binding z-score": -0.685}
{"recordSequence": "TGAATGAGGTTAAAGATCAGGGAACGTGGCGTCG", "PBM binding z-score": -0.304}
